- Test system: KM12 colon
- PROCEDURE TEXT: NCI-60 one-dose screen, 48 h
- ASSAY CONTEXT: 10 µM unless noted
- Description: Growth inhibition of the KM12 human tumor cell line is measured as a screen for anti-cancer activity. Cells are grown in 96 well plates and exposed to the test compound for 48 hours. Compounds are tested at a single concentration, which is 10^-5 M for most compounds. The reported endpoint is percent growth (GI% or GIPRCNT), where numbers from 0 - 100% represent growth inhibition, and numbers from -100% - 0 represent cell death. For example, a value of 40 represents 60% growth inhibition. […]
The panel holds about 83,000 compounds, 20% with a hit somewhere; the sample as a whole holds those more often. Activity calls are given as the source filed them. Rule for the calls: active = growth percent below 10; inactive = the rest.
Reply using exactly one outcome from active, inactive

Reference set (9 entries):
COMPOUND: COc1ccc2[nH]cc(-c3nc(N)nnc3-c3cn(C)c4ncccc34)c2c1
SYSTEM UNDER TEST: KM12 colon
ASSIGNED CATEGORY: inactive

COMPOUND: C=C1CCC2C3(C)COC(c4ccc(F)cc4)OC3CCC2(C)C1CC(O)C1=CCOC1=O (stereo not given)
SYSTEM UNDER TEST: KM12 colon
ASSIGNED CATEGORY: inactive

COMPOUND: CN1C(=O)/C(=C/c2ccc(C(=O)Nc3ncc(Cc4ccc(Cl)cc4Cl)s3)cc2)SC1=S
SYSTEM UNDER TEST: KM12 colon
ASSIGNED CATEGORY: inactive

COMPOUND: C/C(=N\N=C1/C(=O)Nc2ccc(Cl)cc21)c1ccc2c(c1)Nc1ccccc1S2
SYSTEM UNDER TEST: KM12 colon
ASSIGNED CATEGORY: active

COMPOUND: CCCCOc1ccc(NC(=O)c2sc3nc(C)ccc3c2N)cc1
SYSTEM UNDER TEST: KM12 colon
ASSIGNED CATEGORY: inactive

COMPOUND: O=C(Nc1ccc(C(F)(F)F)cc1)Nc1ccc2oc(=O)ccc2c1
SYSTEM UNDER TEST: KM12 colon
ASSIGNED CATEGORY: inactive

COMPOUND: COc1ccc(-c2nc3cc(C)ccc3n2CC(=O)N=Nc2c(O)[nH]c3ccc(Cl)cc23)cc1
SYSTEM UNDER TEST: KM12 colon
ASSIGNED CATEGORY: active

COMPOUND: Nc1nc(C(F)(F)F)cs1
SYSTEM UNDER TEST: KM12 colon
ASSIGNED CATEGORY: inactive

COMPOUND: O=C(c1ccc(Cl)cc1)c1ccc(OCCCN2CCN(c3ccncc3)CC2)cc1
SYSTEM UNDER TEST: KM12 colon
ASSIGNED CATEGORY: inactive

Turning now to a further compound:
Which outcome was entered for the compound `CCCSc1nc(NCCc2c[nH]c3ccccc23)c(C#N)c(-c2ccc(F)cc2)n1` in this test? inactive

----------
- System: HOP-92 NSCLC
- PROCEDURE TEXT: NCI-60 one-dose screen, 48 h (100 = growth as untreated, 0 = no growth, -100 = all killed)
- ASSAY CONTEXT: 10 µM unless noted
Compounds without any hit were thinned out: in the full panel of roughly 83,000, 20% have a hit.
ENDPOINT: growth (%)
Write the answer as a number in %, unit excluded.

COMPOUND: NS(=O)(=O)c1ccc(-n2cc(-c3cccc(NC(=O)c4ccc(Cl)c(C(F)(F)F)c4)c3)nn2)cc1
SYSTEM UNDER TEST: HOP-92 NSCLC
ENDPOINT: growth
REPORTED VALUE: -5.36

COMPOUND: NS(=O)(=O)c1ccc(N=Nc2c(O)n(CC(=O)Nc3ccccc3Cl)c3ccccc23)cc1
SYSTEM UNDER TEST: HOP-92 NSCLC
ENDPOINT: growth
REPORTED VALUE: 33.7

COMPOUND: COc1cc2nc(SCc3ccccc3)n(-c3ccc(Cl)cc3)c(=O)c2cc1OC
SYSTEM UNDER TEST: HOP-92 NSCLC
ENDPOINT: growth
REPORTED VALUE: -30.2

COMPOUND: CC(=O)Nc1ccc(-n2cnc3ccc(-c4ccc(O)cc4)cc32)cc1
SYSTEM UNDER TEST: HOP-92 NSCLC
ENDPOINT: growth
REPORTED VALUE: 66

COMPOUND: CC(=O)Nc1cccc(Nc2nc(NCc3ccccc3)c3ccccc3n2)c1
SYSTEM UNDER TEST: HOP-92 NSCLC
ENDPOINT: growth
REPORTED VALUE: -83.5

COMPOUND: O=C(N=Nc1c(O)[nH]c2ccc(Cl)cc12)c1ccc2nc(-c3ccccc3)[nH]c2c1
SYSTEM UNDER TEST: HOP-92 NSCLC
ENDPOINT: growth
REPORTED VALUE: 77

COMPOUND: O=C(Cn1c(/C=C/c2cccc([N+](=O)[O-])c2)nc2ccccc2c1=O)Nc1ccccc1
SYSTEM UNDER TEST: HOP-92 NSCLC
ENDPOINT: growth
REPORTED VALUE: 64.2

COMPOUND: CN1CCN(Cc2ccc(C(=O)Nc3cccc(C#Cc4cccc5[nH]nc(N)c45)c3)cc2C(F)(F)F)CC1
SYSTEM UNDER TEST: HOP-92 NSCLC
ENDPOINT: growth
REPORTED VALUE: -87.7

Please look at the following compound next.
# growth (compound: COc1ccc(C2=NN(c3ccccc3)C(c3ccc(OC)c(OCc4ccccc4)c3)C2)cc1OC (centres undefined) ) is 109
